target: Human-derived DNA-PK (Homo sapiens); test: DNA-dependent protein kinase (DNA-PK) inhibitory activity screening experiment (Eurofins, HTRF); format: biochemical; conditions: DNA-PK kinase inhibitory activity IC50, ATP: 10 μM; 50 nM GST-cMyc-p53; 30 minutes at room temperature
RESULT TYPE: IC50 (nM)
Report the figure in nM without appending any unit label.

Q: What value of measured IC50 is listed for "Cc1cc2ncnn2cc1Nc1ncc2c(n1)C1(CCOCC1)C(=O)N2C" ?
Result: 39

---

assay: Pharmacokinetic evaluation in mice, plasma, IV and PO; type: in vivo; settings: PO (2 mg/kg), Balb/c male mice, plasma
Tlast overview
Report the figure in h without appending any unit label.

Q: What value of measured Tlast is listed for "Cc1cc2ncnn2cc1Nc1ncc2c(n1)C1(CCC3(CC3)CC1)C(=O)N2C" ?
Result: 8

Q: What value of measured Tlast is listed for "Cc1cc2ncnn2cc1Nc1ncc2c(n1)C1(CCC(F)(F)CC1)C(=O)N2C" ?
Result: 4

Q: What value of measured Tlast is listed for "Cc1cc2ncnn2cc1Nc1ncc2c(n1)C1(CCC3(CCC3)CC1)C(=O)N2C" ?
Result: 4

Q: What value of measured Tlast is listed for "Cc1cc2ncnn2cc1Nc1ncc2c(n1)C1(CCC(C)(C)CC1)C(=O)N2C" ?
Result: 4

---

Cmax overview
assay: Pharmacokinetic evaluation in mice, plasma, IV and PO; type: in vivo; settings: mouse; PO (2 mg/kg), Balb/c male mice, plasma
Report the figure in nM without appending any unit label.

Solved cases below.
Q: What value of measured Cmax is listed for Cc1cc2ncnn2cc1Nc1ncc2c(n1)C1(CCC3(CC3)CC1)C(=O)N2C [Compound 15] ?
Result: 1640

Q: What value of measured Cmax is listed for Cc1cc2ncnn2cc1Nc1ncc2c(n1)C1(CCC3(CCC3)CC1)C(=O)N2C [Compound 11] ?
Result: 1220

// moving on: another record for Cmax
Q: What value of measured Cmax is listed for Cc1cc2ncnn2cc1Nc1ncc2c(n1)C1(CCC(F)(F)CC1)C(=O)N2C [Compound 9] ?
Result: 1080

---

assay: Pharmacokinetic evaluation in mice, plasma, IV and PO; format: in vivo; conditions: mouse; IV (0.4 mg/kg), Balb/c male mice, plasma
AUC(0-t) overview
Report the figure in µM·h without appending any unit label.

Q: What value of measured AUC(0-t) is listed for "Cc1cc2ncnn2cc1Nc1ncc2c(n1)C1(CCC3(CCC3)CC1)C(=O)N2C" ?
Result: 0.349

// moving on: another record for AUC(0-t)
Q: What value of measured AUC(0-t) is listed for "Cc1cc2ncnn2cc1Nc1ncc2c(n1)C1(CCC(F)(F)CC1)C(=O)N2C" ?
Result: 0.311

---

target: Human-derived DNA-PK (Homo sapiens); assay: DNA-dependent protein kinase (DNA-PK) inhibitory activity screening experiment (Eurofins, HTRF); assay type: biochemical; conditions: ATP: 10 μM; 50 nM GST-cMyc-p53; 30 minutes at room temperature; read-out: DNA-PK kinase inhibitory activity IC50
RESULT TYPE: pIC50
Keep it numeric: pIC50 is minus log10 of the concentration in mol/L.

Solved cases below.
Q: What value of measured pIC50 is listed for "Cc1cc2ncnn2cc1Nc1ncc2c(n1)C1(CCC3(CCC3)CC1)C(=O)N2C" ?
Result: 9.00

Q: What value of measured pIC50 is listed for Cc1cc2ncnn2cc1Nc1ncc2c(n1)C1(CCC(C(F)(F)F)CC1)C(=O)N2C (single isomer, unassigned) [Compound 19] ?
Result: 8.15

Q: What value of measured pIC50 is listed for "Cc1cc2ncnn2cc1Nc1ncc2c(n1)C1(CCN(CC(F)(F)F)CC1)C(=O)N2C" ?
Result: 8.40

Q: What value of measured pIC50 is listed for Cc1cc2ncnn2cc1Nc1ncc2c(n1)C1(CCC(C(F)(F)F)CC1)C(=O)N2C (single isomer, unassigned) [Compound 18] ?
Result: 8.40

Q: What value of measured pIC50 is listed for "Cc1cc2ncnn2cc1Nc1ncc2c(n1)C1(CCCC1)C(=O)N2C" ?
Result: 8.15

Q: What value of measured pIC50 is listed for Cc1cc2ncnn2cc1Nc1ncc2c(n1)C1(CCC(O)CC1)C(=O)N2C (single isomer, unassigned) ?
Result: 7.96

Q: What value of measured pIC50 is listed for "Cc1cc2ncnn2cc1Nc1ncc2c(n1)C1(CCN(C)CC1)C(=O)N2C" ?
Result: 7.60

Q: What value of measured pIC50 is listed for "Cc1cc2ncnn2cc1Nc1ncc2c(n1)C1(CCC(C)(C)CC1)C(=O)N2C" ?
Result: 9.00

Further cases:
Q: What value of measured pIC50 is listed for COC1(C)CCC2(CC1)C(=O)N(C)c1cnc(Nc3cn4ncnc4cc3C)nc12 (single isomer, unassigned) [Compound 28] ?
Result: 8.52

Q: What value of measured pIC50 is listed for Cc1cc2ncnn2cc1Nc1ncc2c(n1)C1(CCCOCC1)C(=O)N2C (stereo not drawn) ?
Result: 7.80

Q: What value of measured pIC50 is listed for COC1CCC2(CC1)C(=O)N(C)c1cnc(Nc3cn4ncnc4cc3C)nc12 (single isomer, unassigned) [Compound 3] ?
Result: 8.00

Q: What value of measured pIC50 is listed for "Cc1cc2ncnn2cc1Nc1ncc2c(n1)C1(CCC(F)(F)CC1)C(=O)N2C" ?
Result: 8.52

Q: What value of measured pIC50 is listed for Cc1cc2ncnn2cc1Nc1ncc2c(n1)C1(CC=C(F)CC1)C(=O)N2C (stereo not drawn) ?
Result: 8.15

Q: What value of measured pIC50 is listed for COC1(C)CCC2(CC1)C(=O)N(C)c1cnc(Nc3cn4ncnc4cc3C)nc12 (single isomer, unassigned) [Compound 27] ?
Result: 8.00

Q: What value of measured pIC50 is listed for CON=C1CCC2(CC1)C(=O)N(C)c1cnc(Nc3cn4ncnc4cc3C)nc12 (stereo not drawn) ?
Result: 7.96

Reference for the values: patent US20230055321A1
